# Tested system: 17β-HSD1 (Homo sapiens)
# Construct: For the partial purification of 17β-HSD1, the cytosolic fraction was precipitated with ammonium sulfate
# Sequence (P14061 whole entry): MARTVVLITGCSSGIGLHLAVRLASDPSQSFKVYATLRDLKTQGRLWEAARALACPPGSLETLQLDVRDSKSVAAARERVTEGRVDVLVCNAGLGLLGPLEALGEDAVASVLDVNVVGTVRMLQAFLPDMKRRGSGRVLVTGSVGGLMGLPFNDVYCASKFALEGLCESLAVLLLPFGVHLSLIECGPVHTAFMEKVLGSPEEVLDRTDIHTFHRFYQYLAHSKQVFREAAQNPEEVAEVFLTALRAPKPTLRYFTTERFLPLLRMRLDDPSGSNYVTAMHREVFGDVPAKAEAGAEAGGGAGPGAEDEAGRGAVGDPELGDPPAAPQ
# Experiment: Inhibition of 17β-HSD1 in cell-free assay
# Condition parameters: human placenta, cytosolic fraction, substrate E1 500 nM, cofactor NADH 500 μM
pIC50: −log10 of the molar value.
Recorded metric: pIC50

Mol	Recorded metric	Obs value
COc1cccc(-c2ccc(C(=O)N(C)c3cccc(C)c3)s2)c1	pIC50	4.94
Cc1cccc(N(C)C(=O)c2ccc(-c3cccc(O)c3)s2)c1	pIC50	5.17
CN(Cc1cccc(O)c1)C(=O)c1ccc(-c2cccc(N(C)C)c2)s1	pIC50	4.73
COc1cccc(-c2ccc(C(=O)N(C)Cc3cccc(O)c3)s2)c1	pIC50	4.63
CN(Cc1cccc(O)c1)C(=O)c1ccc(-c2ccccc2O)s1	pIC50	5.53
CN(Cc1cccc(O)c1)C(=O)c1ccc(-c2ccc(O)cc2)s1	pIC50	5.29
COc1cccc(-c2ccc(C(=O)N(C)c3cccc(-c4ccccc4)c3)s2)c1	pIC50	5.96
COc1cccc(N(C)C(=O)c2ccc(-c3cccc(N(C)C)c3)s2)c1	pIC50	4.98

[I] COc1cccc(N(C)C(=O)c2ccc(-c3ccc(OC)cc3OC)s2)c1
[II] COc1cccc(-c2ccc(C(=O)N(C)c3cccc(C(F)(F)F)c3)s2)c1
[III] CN(Cc1cccc(O)c1)C(=O)c1cccc(-c2cccc(O)c2)c1
Let's sort these by pIC50, smallest first. Go ahead? Could you list the labels in the order requested?
II, III, I
